From: PubChem BioAssay AID1671190

target: Polyunsaturated fatty acid lipoxygenase ALOX12 (Homo sapiens); experiment: Primary qHTS assay for inhibitors of human arachidonate 12S-lipoxygenase (ALOX12): Round 2; conditions: purified 12hLO, xylenol orange hydroperoxide absorbance; series mostly up to 108 µM
Screen size: about 580,000 compounds; about 6,100 (1.1%) were called active. About 15% were inconclusive and are not listed. Calls follow the shape of the dose curve; as a rule, active = well fitted inhibition curve with a large enough effect; inconclusive = small, poorly fitted or top-dose-only effect, or another doubt; inactive = no such curve, though single readings can be large or run the other way. This is one part of a sample in which actives are shown more often than they occur.
Labels: active, inactive

[
  {
    "molecule": "Cc1cccc(NCC(=O)Nc2cc(Cl)ccc2-n2cncn2)c1C",
    "target_entity": "Polyunsaturated fatty acid lipoxygenase ALOX12 (Homo sapiens)",
    "category": "inactive"
  },
  {
    "molecule": "COC(=O)c1sc(=S)n(-c2ccccc2)c1N",
    "target_entity": "Polyunsaturated fatty acid lipoxygenase ALOX12 (Homo sapiens)",
    "category": "active"
  },
  {
    "molecule": "CCOc1cc2[nH]c(=S)n(Cc3ccc(C(=O)N4CCN(C)CC4)cc3)c(=O)c2cc1OCC",
    "target_entity": "Polyunsaturated fatty acid lipoxygenase ALOX12 (Homo sapiens)",
    "category": "inactive"
  },
  {
    "molecule": "CSCCC(=O)NCc1ccccc1F",
    "target_entity": "Polyunsaturated fatty acid lipoxygenase ALOX12 (Homo sapiens)",
    "category": "inactive"
  },
  {
    "molecule": "O=C(Cc1ccc(Cl)cc1)NCc1nnc2ccc(-c3ccc(F)cc3)nn12",
    "target_entity": "Polyunsaturated fatty acid lipoxygenase ALOX12 (Homo sapiens)",
    "category": "inactive"
  },
  {
    "molecule": "COc1ccc(C)cc1NC(=O)NC(C(=O)N1CCc2ccccc21)C(C)C (stereo not given)",
    "target_entity": "Polyunsaturated fatty acid lipoxygenase ALOX12 (Homo sapiens)",
    "category": "inactive"
  },
  {
    "molecule": "NC(=O)C1CCN(C(=O)c2ccc3c(=O)n(Cc4cccc(Br)c4)c(=S)[nH]c3c2)CC1",
    "target_entity": "Polyunsaturated fatty acid lipoxygenase ALOX12 (Homo sapiens)",
    "category": "active"
  },
  {
    "molecule": "O=C(c1ccc2c(c1)OCO2)N1CCCN(C(=O)C2CC2)c2ccccc21",
    "target_entity": "Polyunsaturated fatty acid lipoxygenase ALOX12 (Homo sapiens)",
    "category": "inactive"
  },
  {
    "molecule": "CCOC(=O)N1CCN(C(=O)c2ccc3c(=O)n(CCc4ccc(OC)c(OC)c4)c(=O)[nH]c3c2)CC1",
    "target_entity": "Polyunsaturated fatty acid lipoxygenase ALOX12 (Homo sapiens)",
    "category": "inactive"
  },
  {
    "molecule": "O=C(NNC(=O)C1(c2ccc(Br)cc2)CCCC1)c1ccccc1",
    "target_entity": "Polyunsaturated fatty acid lipoxygenase ALOX12 (Homo sapiens)",
    "category": "inactive"
  }
]

---

target: Polyunsaturated fatty acid lipoxygenase ALOX12 (Homo sapiens) (UniProt P18054); assay: Primary qHTS assay for inhibitors of human arachidonate 12S-lipoxygenase (ALOX12): Round 2; conditions: purified 12hLO, xylenol orange hydroperoxide absorbance; series mostly up to 108 µM
Sequence (P18054 whole entry, looked up): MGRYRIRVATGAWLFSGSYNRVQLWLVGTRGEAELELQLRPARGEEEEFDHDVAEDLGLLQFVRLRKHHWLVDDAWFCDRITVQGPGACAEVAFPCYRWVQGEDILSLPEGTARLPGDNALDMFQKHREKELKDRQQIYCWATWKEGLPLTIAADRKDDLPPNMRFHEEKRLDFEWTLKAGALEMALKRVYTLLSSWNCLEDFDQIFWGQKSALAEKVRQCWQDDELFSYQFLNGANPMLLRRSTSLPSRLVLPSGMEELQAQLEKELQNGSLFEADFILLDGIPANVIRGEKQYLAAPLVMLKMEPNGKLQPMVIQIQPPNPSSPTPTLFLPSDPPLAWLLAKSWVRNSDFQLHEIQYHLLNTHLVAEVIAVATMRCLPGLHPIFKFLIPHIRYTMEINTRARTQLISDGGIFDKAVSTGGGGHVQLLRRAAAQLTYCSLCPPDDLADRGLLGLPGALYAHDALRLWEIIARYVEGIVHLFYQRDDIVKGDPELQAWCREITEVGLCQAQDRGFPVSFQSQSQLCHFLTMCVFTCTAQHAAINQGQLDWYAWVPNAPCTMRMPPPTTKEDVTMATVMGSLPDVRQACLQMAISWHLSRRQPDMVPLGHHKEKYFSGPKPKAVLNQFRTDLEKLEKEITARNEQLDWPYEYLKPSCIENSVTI
The whole screen tested about 580,000 compounds, of which about 6,100 (1.1%) were called active. Another 15% or so got no clear call; they are omitted. Calls come from the whole dose curve; as a rule, active = well fitted inhibition curve with a large enough effect; inconclusive = small, poorly fitted or top-dose-only effect, or another doubt; inactive = no such curve, though single readings can be large or run the other way. What follows is part of a selection rich in actives, with near analogues and random picks from the rest.
Labels: yes (1) for active, no (0) for inactive

[
  {
    "compound": "Cc1nn(CC(O)COc2ccccc2)c(=O)c2ccccc12 (stereo not given)",
    "target_entity": "Polyunsaturated fatty acid lipoxygenase ALOX12 (Homo sapiens) (UniProt P18054)",
    "category": "no (0)"
  },
  {
    "compound": "CC1(C)Cc2c(sc3c2c(=O)n(CCO)c(=O)n3CCc2ccccc2)CO1",
    "target_entity": "Polyunsaturated fatty acid lipoxygenase ALOX12 (Homo sapiens) (UniProt P18054)",
    "category": "no (0)"
  },
  {
    "compound": "CCC1(C)Cc2c(sc3[nH]c(=S)n(Cc4ccccc4)c(=O)c23)CO1 (stereo not given)",
    "target_entity": "Polyunsaturated fatty acid lipoxygenase ALOX12 (Homo sapiens) (UniProt P18054)",
    "category": "yes (1)"
  },
  {
    "compound": "CCCCNC(=O)C(C#N)c1nc2ccccc2nc1N1CCN(C(=O)OCC)CC1 (stereo not given)",
    "target_entity": "Polyunsaturated fatty acid lipoxygenase ALOX12 (Homo sapiens) (UniProt P18054)",
    "category": "no (0)"
  },
  {
    "compound": "CCC1(C)Cc2c(sc3nnn(CC(=O)Nc4ccc(Cl)cc4)c(=O)c23)CO1 (stereo not given)",
    "target_entity": "Polyunsaturated fatty acid lipoxygenase ALOX12 (Homo sapiens) (UniProt P18054)",
    "category": "no (0)"
  }
]
